Experimental Target: UniProtKB P21554
Measurement Description: CB1 receptor radioligand ([3H]CP-55,940) displacement binding assay
Condition Details: CB1 (Ki, nM), displacement of 0.5 nM [3H]CP-55,940; means ± SEM, n = 3; Cheng-Prusoff from IC50
Test Readout: log10(Ki) (log10 of the value in nM)
Log scale reminder: Ki in nM, then log10 taken.

Worked cases, answers included:
>>> print(df.to_string())
                                   molecule  experimental_target  test_value
0  Cc1cc2nc(-c3ccccn3)n(Cc3ccc4ccccc4c3)c2cc1C [Compound 48]     UniProtKB P21554        1.68
1  O=C(c1ccc2ccccc2c1)n1c(-c2ccncc2)nc2ccc(F)cc21 [Compound 31]     UniProtKB P21554        0.74
2  Cc1cc2nc(-c3ccncc3)n(C(=O)c3cccc4ccccc34)c2cc1C [Compound 21]     UniProtKB P21554        0.60

Query :: For Fc1ccc2c(c1)nc(-c1ccncc1)n2Cc1ccc2ccccc2c1 [Compound 54] , what is its reported log10(Ki)?
Result :: 1.65

Query :: Queued: O=C(c1cccc2ccccc12)n1c(-c2ccncc2)nc2ccccc21 [Compound 18]
Result :: 1.58

Query :: Follow-up entry: O=C(c1cccc2ccccc12)n1c(-c2cccnc2)nc2cc(F)ccc21 [Compound 15]
Result :: 2.73

---

Parameter: melting point. Scope: all listed entries.

Recorded melting point, per entry:
>>> df
                                   compound         test_value
0  Fc1ccc2c(c1)nc(-c1ccccn1)n2Cc1ccc2ccccc2c1 [Compound 46]  165.7 to 166.4 °C
1  O=C(c1cccc2ccccc12)n1c(-c2ccncc2)nc2ccc(F)cc21 [Compound 20]  190.4 to 190.9 °C
2  c1ccc(-c2nc3ccccc3n2Cc2cccc3ccccc23)nc1 [Compound 33]  150.7 to 151.6 °C
3  Cc1cc2nc(-c3ccccn3)n(Cc3cccc4ccccc34)c2cc1C [Compound 36]  155.5 to 156.1 °C
4  c1ccc2c(Cn3c(-c4ccncc4)nc4ccccc43)cccc2c1 [Compound 41]  163.3 to 163.8 °C

Query :: Please look up its melting point: O=C(c1cccc2ccccc12)n1c(-c2ccccn2)nc2cc(F)ccc21 [Compound 11]
Result :: 167.2 to 167.9 °C

Query :: What do we get for Cc1cc2nc(-c3ccncc3)n(Cc3cccc4ccccc34)c2cc1C [Compound 44] ?
Result :: 156.8 to 157.6 °C

Query :: Then this compound: c1ccc(-c2nc3ccccc3n2Cc2ccc3ccccc3c2)nc1 [Compound 45]
Result :: 150.7 to 151.8 °C

---

Experimental Target: human cannabinoid CB1 receptor (Homo sapiens, UniProt P21554)
Sequence (P21554 whole entry): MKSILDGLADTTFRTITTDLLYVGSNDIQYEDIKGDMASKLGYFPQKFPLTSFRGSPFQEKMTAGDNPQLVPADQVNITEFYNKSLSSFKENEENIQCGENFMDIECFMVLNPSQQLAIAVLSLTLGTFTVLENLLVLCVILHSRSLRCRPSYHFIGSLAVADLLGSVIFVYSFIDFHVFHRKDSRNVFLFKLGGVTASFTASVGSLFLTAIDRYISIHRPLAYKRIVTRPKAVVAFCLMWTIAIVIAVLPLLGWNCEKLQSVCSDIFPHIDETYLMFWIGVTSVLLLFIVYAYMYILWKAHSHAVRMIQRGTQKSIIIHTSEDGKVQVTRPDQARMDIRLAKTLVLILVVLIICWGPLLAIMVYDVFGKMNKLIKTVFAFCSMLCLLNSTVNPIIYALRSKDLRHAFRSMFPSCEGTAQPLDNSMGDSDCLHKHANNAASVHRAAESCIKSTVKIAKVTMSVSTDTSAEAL
Measurement Description: CB1 receptor radioligand ([3H]CP-55,940) displacement binding assay
Condition Details: CoMFA training and test set input; read-out: Experimental activity (pIC50) (converted)
Test Readout: IC50 (nM)
Output spec: scalar in nM, unitless text.

Below are worked cases with known answers.
                                   compound  test_value
0  Fc1ccc2c(c1)nc(-c1cccnc1)n2Cc1ccc2ccccc2c1 [Compound 50]         600
1  c1ccc2c(Cn3c(-c4ccncc4)nc4ccccc43)cccc2c1 [Compound 41]         274

Query :: Bench note: what IC50 did O=C(c1ccc2ccccc2c1)n1c(-c2ccncc2)nc2ccccc21 [Compound 29] show?
Result :: 8220
